molecular target: Rat recombinant DYRK1A (Rattus norvegicus, UniProt Q63470); experiment: Assaying of the kinase activity of DYRK1A (33P-ATP, myelin basic protein, P81 filter); type: biochemical; settings: 15 μM ATP, 30° C., 30 min; read-out: IC50 DYRK1A
pIC50: −log10 of the molar value.
assay-metric: pIC50

Example cases with answers are listed next.
> print(dat)
                                   compound                             tested.system  observed
1  CCCCN1C(=O)/C(=C/c2ccc3c(c2)OCO3)N=C1NCCC  Rat recombinant DYRK1A (Rattus norvegicus, UniProt Q63470)    < 5.00
2         CSC1=N/C(=C\c2ccc(Br)cc2)C(=O)N1C  Rat recombinant DYRK1A (Rattus norvegicus, UniProt Q63470)    < 5.00
3    CCSC1=N/C(=C\c2c[nH]c3ccccc23)C(=O)N1C  Rat recombinant DYRK1A (Rattus norvegicus, UniProt Q63470)    < 5.00
4  CCCNC1=N/C(=C\c2cc(OC)c(OC)c(OC)c2)C(=O)N1C  Rat recombinant DYRK1A (Rattus norvegicus, UniProt Q63470)    < 5.00
5  CN1C(=O)/C(=C/c2ccc3c(c2)OCO3)N=C1Nc1ccc(O)cc1  Rat recombinant DYRK1A (Rattus norvegicus, UniProt Q63470)      6.42
6  COc1cc(/C=C2\N=C(NC(C)C)N(C)C2=O)cc(OC)c1OC [FC104b]  Rat recombinant DYRK1A (Rattus norvegicus, UniProt Q63470)    < 5.00
7  O=C1NC(Nc2ccc(O)cc2)=N/C1=C\c1ccc2c(c1)OCO2  Rat recombinant DYRK1A (Rattus norvegicus, UniProt Q63470)      7.08
8  C#CCSC1=N/C(=C\c2ccc3c(c2)OCO3)C(=O)N1CCCC  Rat recombinant DYRK1A (Rattus norvegicus, UniProt Q63470)    < 5.00

Entry `CCCNC1=N/C(=C\c2ccc3c(c2)OC(F)(F)O3)C(=O)N1C` , pIC50 reported as < 5.00

Measured pIC50, `CSC1=N/C(=C\c2ccc(O)cc2)C(=O)N1C` : 5.17

* * *

molecular target: Rat recombinant DYRK1A (Rattus norvegicus, UniProt Q63470); experiment: Assaying of the kinase activity of DYRK1A (33P-ATP, myelin basic protein, P81 filter); format: biochemical; details: 15 μM ATP, 30° C., 30 min; read-out: IC50 DYRK1A;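 further: GST fusion rat DYRK1A made in E. coli, scintillation counting of label bound to substrate, activity as percent of the inhibitor-free maximum after blank subtraction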
Reported log10(IC50) is given for each of the following compounds.
// units: nM (pre-log); metric: IC50; scale: log10

> print(dat)
                                   compound  observed
1  CC(O)c1cccc(NC2=N/C(=C\c3ccc4c(c3)OCO4)C(=O)N2C)c1 (racemic)      2.41
2  CN1C(=O)/C(=C/c2ccc3c(c2)OCO3)N=C1c1ccc(O)cc1      2.63
3       CNC1=N/C(=C\c2ccc3c(c2)OCO3)C(=O)N1      3.23
4  CN1C(=O)/C(=C/c2ccc3c(c2)OCO3)N=C1NCC(O)CO (stereo not drawn)      2.90

// moving on: another record for log10(IC50)
Rat recombinant DYRK1A (Rattus norvegicus, UniProt Q63470) log10(IC50) of `CN1C(=O)/C(=C/c2ccc3c(c2)OCO3)N=C1NC(=O)C(C)(C)C` is 3.53
